Origin of measurements: paper PMC3940414

TARGET_UNDER_TEST: rFAAH (Rattus norvegicus)
Sequence (P97612 30-579 limits assumed): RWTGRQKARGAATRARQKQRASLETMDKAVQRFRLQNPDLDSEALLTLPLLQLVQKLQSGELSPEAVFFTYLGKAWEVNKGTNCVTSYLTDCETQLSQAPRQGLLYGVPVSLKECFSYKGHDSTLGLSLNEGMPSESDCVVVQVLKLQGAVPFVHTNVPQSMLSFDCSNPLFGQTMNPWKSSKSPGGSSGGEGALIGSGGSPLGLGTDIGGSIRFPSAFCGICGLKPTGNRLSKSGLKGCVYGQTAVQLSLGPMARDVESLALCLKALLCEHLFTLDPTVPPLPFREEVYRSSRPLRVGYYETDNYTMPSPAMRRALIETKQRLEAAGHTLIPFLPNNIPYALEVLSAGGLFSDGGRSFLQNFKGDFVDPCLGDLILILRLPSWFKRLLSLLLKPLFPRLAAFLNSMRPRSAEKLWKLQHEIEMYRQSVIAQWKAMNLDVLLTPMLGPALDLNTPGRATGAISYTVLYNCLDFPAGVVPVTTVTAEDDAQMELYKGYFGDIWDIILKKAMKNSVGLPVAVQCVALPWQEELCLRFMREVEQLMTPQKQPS
ASSAY_INFO: Lineweaver–Burk kinetic analysis
Assay type: biochemical
CONDITION_LABEL: after 3 h preincubation with the enzyme
VALUE_TYPE: mode of inhibition (Lineweaver–Burk)

> print(dat)
                            compound.string                  reading
1  O=C(CCCCCCc1ccccc1)c1ncc(-c2ccc(CBr)cn2)o1           noncompetitive
2  CS(=O)(=O)/C=C/c1ccc(-c2cnc(C(=O)CCCCCCc3ccccc3)o2)nc1           noncompetitive
3  COC(=N)Cc1ccc(-c2cnc(C(=O)CCCCCCc3ccccc3)o2)nc1           noncompetitive
4  CSC(=O)c1ccc(-c2cnc(C(=O)CCCCCCc3ccccc3)o2)nc1  reversible, competitive
5  CCOC(=O)/C=C/c1ccc(-c2cnc(C(=O)CCCCCCc3ccccc3)o2)nc1           mixed kinetics
6  COC(=O)c1ccc(-c2cnc(C(=O)CCCCCCc3ccccc3)o2)nc1  reversible, competitive
7  N#C/C=C/c1ccc(-c2cnc(C(=O)CCCCCCc3ccccc3)o2)nc1           mixed kinetics
8  N#CCc1ccc(-c2cnc(C(=O)CCCCCCc3ccccc3)o2)nc1           noncompetitive
9     O=C(CCCCCCc1ccccc1)c1ncc(-c2ccccn2)o1  reversible, competitive
